Catalogue of growth values
- System: SF-295 CNS
- assayComment: NCI-60 one-dose screen, 48 h (100 = growth as untreated, 0 = no growth, -100 = all killed)
- conditionDescription: 10 µM unless noted
This is part of a sample that, as a whole, favours compounds with a hit. Of some 83,000 tested, about 20% had one in any assay. Activity calls are given as the source filed them. How the source made its calls: active means growth percent below 10; inactive means the rest.

- molecule: "COc1ccc(/C=C/C(=O)c2ccc(-n3cc(CN4CCN(c5cc6c(cc5F)c(=O)c(C(=O)O)cn6C5CC5)CC4)nn3)cc2)cc1"
  endpointName: "growth"
  measurement: "94.9% (inactive)"
- molecule: "CCOc1ccc(-c2cc(C3(S(=O)(=O)c4ccc(C)cc4)CC=CC3)on2)cc1"
  endpointName: "growth"
  measurement: "90% (inactive)"
- molecule: "COc1ccc(CNc2ccc3nc(CCC4CCCCC4)[nH]c3c2)cc1"
  endpointName: "growth"
  measurement: "91% (inactive)"

Task: Requested read-out: growth. Entry: `O=C1C(c2c(O)[nH]c3ncccc23)=Nc2ccccc21`
Output: 102% (inactive)

Task: Next up: `CCOc1ccc(N2C(=O)CCSC2=S)cc1`
Output: 95.7% (inactive)

Task: Next: `C#C[C@]1(O)CC[C@H]2[C@@H]3CC=C4c5sc(-c6cccc(C)c6)nc5CC[C@]4(C)[C@H]3CC[C@@]21C`
Output: 58.5% (inactive)

Task: Cool, now `CCCc1cc(CCC)n2nc(N)nc2n1`
Output: 96.4% (inactive)

Task: `NS(=O)(=O)Oc1cccc(-c2nc3sccn3c2-c2ccccc2)c1` , same question.
Output: 28.8% (inactive)

Task: Cool, now `COc1cc(C(=O)/C=C/c2c(-c3cccs3)nc3sc(C)cn23)cc(OC)c1OC`
Output: 3.07% (active)

Task: Now try CN1CC(c2ccccc2)C(C(=O)c2ccc(Br)cc2)C12C(=O)Nc1ccccc12 (stereo not given) .
Output: 93.9% (inactive)

---

- System: IGROV1 ovarian
- assayComment: NCI-60 one-dose screen, 48 h (100 = growth as untreated, 0 = no growth, -100 = all killed)
- conditionDescription: 10 µM unless noted
The panel holds about 83,000 compounds, 20% with a hit somewhere; the sample as a whole holds those more often.
Decide using growth alone. Strictly below 30%: fulfilled. Equal to or above 30%: not fulfilled.

These solved cases illustrate the format of a correct answer.
- chemicalSmiles: "O=C(O)CCCN1C(=O)CSC1=S"
  targetOfAssay: "IGROV1 ovarian"
  classAssignment: "not fulfilled"
- chemicalSmiles: "O=C(N/N=C/c1ccccc1Cl)c1ccccc1Nc1ccnc(C(F)(F)F)c1"
  targetOfAssay: "IGROV1 ovarian"
  classAssignment: "fulfilled"
- chemicalSmiles: "O=C(Nc1cccc2c1C(=O)c1cccc(NC(=O)c3ccc(C(=O)Nc4cccc5c4C(=O)c4cccc(NC(=O)c6ccccc6)c4C5=O)cc3)c1C2=O)c1ccccc1"
  targetOfAssay: "IGROV1 ovarian"
  classAssignment: "not fulfilled"
- chemicalSmiles: "c1ccc2cc(Cn3cc[n+](Cc4ccc5ccccc5c4)c3)ccc2c1"
  targetOfAssay: "IGROV1 ovarian"
  classAssignment: "fulfilled"
- chemicalSmiles: "O=C1CCc2c(sc3[nH]c(=S)n(-c4cc(C(F)(F)F)cc(C(F)(F)F)c4)c(=O)c23)C1"
  targetOfAssay: "IGROV1 ovarian"
  classAssignment: "fulfilled"
- chemicalSmiles: "COC(=O)c1nc(-c2ccc(C)cc2)oc1N1CCOCC1"
  targetOfAssay: "IGROV1 ovarian"
  classAssignment: "not fulfilled"
- chemicalSmiles: "Cc1ccc(C(=O)Nc2ccc(CN3CCN(C)CC3)c(C(F)(F)F)c2)cc1C#Cc1cnc(N)c2ccccc12"
  targetOfAssay: "IGROV1 ovarian"
  classAssignment: "fulfilled"
- chemicalSmiles: "C(=N\\Nc1nnc2n1N=C(c1ccccc1)CS2)/c1ccc(OCc2ccccc2)cc1"
  targetOfAssay: "IGROV1 ovarian"
  classAssignment: "not fulfilled"

Okay, now this compound:
Task: Bench note: check whether `CO[C@H]1CC(c2ccc[nH]2)=N[C@]12O[C@@H](C)C[C@@H]1CCCCCCCc3ccc([nH]3)[C@H]12` shows growth below 30%
Output: fulfilled

---

- Tested on: BT-549 breast
- assayComment: NCI-60 one-dose screen, 48 h
- conditionDescription: 10 µM unless noted
This is part of a sample that, as a whole, favours compounds with a hit. Of some 83,000 tested, about 20% had one in any assay. Active and inactive are the calls of the source. The calls were made as follows: active = growth percent below 10; inactive = the rest.
Log the outcome using a class from active, inactive

Completed entries (count: 4):
- compound: "COc1cccc(C2C(C#N)=C(N)Oc3c2ccc2ccccc32)c1 (configuration not stated)"
  classAssignment: "inactive"
- compound: "C=C1C(=O)O[C@H]2[C@H]1CC/C(CNC(=O)/C=C/c1cc(OC)c(OC)c(OC)c1)=C\\CC[C@@]1(C)O[C@@H]21"
  classAssignment: "active"
- compound: "Nc1ccc(Cl)c2c(=O)c3ccccc3[nH]c12"
  classAssignment: "inactive"
- compound: "Cc1oc2ccc(O)c(CN3CCCCCC3)c2c1C(=O)Nc1ccc(C(F)(F)F)cc1"
  classAssignment: "inactive"

Task: Hey, what did the test say about `O=C1/C(=C/c2ccccc2)COc2ccc(O)cc21` ?
Output: inactive

Task: Proceed to `C=C(C)Cn1c(SCC(=O)c2cccs2)nc2sc3c(c2c1=O)CCCC3`
Output: inactive

Task: Likewise for `CC(C)(C)n1cc(-c2ccnc(NCCNS(=O)(=O)c3cccc4ccccc34)c2)c(-c2cccc(O)c2)n1` ?
Output: inactive

Task: Moving on to the next compound: `Cc1nn(C)c2ncnc(Nc3ccccc3Br)c12`
Output: inactive

Task: Same lookup for `Cc1c2ccncc2c(C)c2c1c1ccccc1n2CCCCCC(=O)O` , please.
Output: inactive

Task: Next record, please: `COc1ccc(S(=O)(=O)N(C)c2oc(-c3ccc(Cl)cc3)nc2C#N)cc1`
Output: inactive

Task: Could you do the same for `O=c1ccc2c(ccc3ncccc32)o1` , please?
Output: inactive

Task: Then this compound: `C#Cc1ccc(NC(=O)Cc2ccc(/C=C/C(=O)c3nccn3C)cc2)cc1`
Output: inactive

Task: Please answer likewise for `c1ccc2[nH]c(-c3ccc(-c4nccc5c4[nH]c4ccccc45)cc3)nc2c1`
Output: inactive

Task: Quick one: Nc1nc(N)c2c(n1)NC(c1ccc3c(c1)OCO3)CC(c1cccc(Nc3ccncc3)c1)=N2 (configuration not stated)
Output: inactive

Task: Then what about the compound `CN1CCN(Cc2ccc(NC(=O)c3cc(C#Cc4cnc(N)c5ncccc45)n(C)n3)cc2C(F)(F)F)CC1` ?
Output: inactive

Task: Entry `Cc1c(-c2cnc3ccc(Cl)cc3c2C(=O)O)nnn1-c1ccc(Cl)cc1` please
Output: inactive

Task: Also check `Cc1ccc2nc(/C=C/c3ccc(N(C)C)cc3)cc(C)c2c1`
Output: inactive

Task: Repeat with `C[C@H]1c2ccccc2CN1CCCOc1cc2c(cc1OCC1CC1)C1(CCCC1)C(N)=N2`
Output: inactive

Task: Consider next the compound `COC(=O)c1cc(-c2ccc(OC)c(OC)c2)[nH]c1N/N=C/c1c(Cl)cccc1Cl` in the same way.
Output: inactive

Task: Also `C#C[C@]1(O)CC[C@H]2[C@@H]3CC=C4c5sc(-c6ccccc6)nc5CC[C@]4(C)[C@H]3CC[C@@]21C` ?
Output: inactive

Task: Repeat with `C=C(C)[C@@H]1CC[C@]2(COCCCNCCCN)CC[C@]3(C)[C@H](CC[C@@H]4[C@@]5(C)CC[C@H](OCCCN)C(C)(C)[C@@H]5CC[C@]43C)[C@@H]12`
Output: inactive

Task: Same for `Cc1c2cnccc2c(C)c2c1c1cc(C(=O)O)ccc1n2C`
Output: active

Task: Now the compound `COc1ccc(-c2cc(-c3ccc(N(C)C)cc3)nc(NC(=O)c3cccnc3)n2)cc1`
Output: inactive

Task: What about this compound? `O=C(/C=C\c1ccc(O)c(O)c1)c1ccccc1O`
Output: active

Task: Item: `Cn1cc(-c2ccc3occ(-c4cccc(-c5ccncc5)c4)c3n2)cn1`
Output: inactive

Task: Query `CO[C@]12C=C/C(=C(/C(=O)OCc3cccnc3)C(=O)CCCCCCCC[C@]3(OC)C=C/C(=C(/C(=O)OCc4cccnc4)C(=O)CCCCCCCC1)O3)O2` next
Output: active

Task: How about this compound: `Nc1ncc(-c2ccc3ncnc(N4CCc5cc(F)c(Cl)cc54)c3c2)cc1C(F)(F)F`
Output: inactive

Task: And what about the compound `N=C(N)c1ccc(-c2ccc(-c3ccc(Cl)cc3Cl)s2)nc1` ?
Output: inactive

Task: Input `O=[N+]([O-])c1ccc(Oc2cccc3c(Oc4ccc([N+](=O)[O-])cc4[N+](=O)[O-])cccc23)c([N+](=O)[O-])c1`
Output: inactive

---

- Test system: ACHN renal
- assayComment: NCI-60 one-dose screen, 48 h
- conditionDescription: 10 µM unless noted
Compounds without any hit were thinned out: in the full panel of roughly 83,000, 20% have a hit. Calls of active or inactive are those of the source. How the source made its calls: active means growth percent below 10; inactive means the rest.
Reply using exactly one outcome from active, inactive

- molecule: "CCOC(=O)c1c(C)n2c(=O)cc(C)c3c(OC(C)=O)c(OC(C)=O)cc1c32"
  classAssignment: "inactive"
- molecule: "CCOc1cc(\\C=N/N=C(N)/C(N)=N\\N=C/c2ccc(O)c(OCC)c2)ccc1O"
  classAssignment: "inactive"
- molecule: "O=S(=O)(c1ccc(NCSc2nc3ccccc3s2)cc1)c1ccc(NCSc2nc3ccccc3s2)cc1"
  classAssignment: "inactive"
- molecule: "O=C(OCC(O)(CO)C(=O)NC12CC3CC(CC(C3)C1)C2)c1ccc(Cl)cc1 (centres undefined)"
  classAssignment: "inactive"
- molecule: "CCOC(=O)c1c(C)nc2c(c1N)C(=O)C(=O)N2CCc1ccc(OC)c(OC)c1"
  classAssignment: "inactive"
- molecule: "O=C(NS(=O)(=O)c1ccccc1)n1cc(-c2ccncc2)c(-c2cc(O)cc(Cl)c2)n1"
  classAssignment: "inactive"
- molecule: "CO[C@H]1CC(c2ccc[nH]2)=N[C@]12O[C@@H](C)C[C@@H]1CCCCCCCc3ccc([nH]3)[C@H]12"
  classAssignment: "active"
- molecule: "COc1ccc(Nc2nccc(Nc3ccc4[nH]ncc4c3)n2)cc1"
  classAssignment: "inactive"

# next molecule below
Task: Give the logged outcome of this assay for the following molecule: `CCN(CC)CCOc1ccc(/C(=C(\C)Cc2ccc(OC)cc2)c2ccc(O)cc2)cc1`
Output: inactive

Origin of measurements: PubChem BioAssay (NCI)
